test: Toxicity in human RBC assessed as hemolysis at 1 mM after 30 mins relative to control; format: cell-based, Erythrocyte; conditions: red blood cells (RBC), read-out: Activity
Non-standard residues stand in square brackets, D forms with d. Residues, ends and D or L forms follow the SMILES beside them. *: point of attachment. Phe(4-guanidino) = N=C(N)Nc1ccc(C[C@H](N)C(=O)O)cc1; Bip = N[C@@H](Cc1ccc(-c2ccccc2)cc1)C(=O)O; Dip = N[C@H](C(=O)O)C(c1ccccc1)c1ccccc1; Phe(4-NH2) = Nc1ccc(C[C@H](N)C(=O)O)cc1; Agp = N=C(N)NC[C@H](N)C(=O)O; Orn = NCCC[C@H](N)C(=O)O; NHBn = c1ccc(CN*)cc1
MEASUREMENT_KIND: hemolysis at 0.5 h, 1000 µM

Consider the worked cases shown below.
- N=C(N)NCCC[C@H](NC(=O)[C@@H](NC(=O)[C@@H](N)CCCNC(=N)N)C(c1ccccc1)c1ccccc1)C(=O)NCc1ccccc1 (H-Arg-[Dip]-Arg-NHBn): > 10%
- N=C(N)NCCC[C@H](NC(=O)[C@H](Cc1c[nH]c2ccccc12)NC(=O)[C@@H](N)CCCNC(=N)N)C(=O)NCc1ccccc1 (H-Arg-Trp-Arg-NHBn): > 5%
- N=C(N)NCCC[C@H](N)C(=O)N[C@@H](Cc1c[nH]c2ccccc12)C(=O)N[C@@H](Cc1ccc(N)cc1)C(=O)NCc1ccccc1 (H-Arg-Trp-[Phe(4-NH2)]-NHBn): > 5%
- N=C(N)NCCC[C@H](N)C(=O)N[C@@H](Cc1c[nH]c2ccccc12)C(=O)N[C@@H](CNC(=N)N)C(=O)NCc1ccccc1 (H-Arg-Trp-[Agp]-NHBn): > 2%
- NC(=O)[C@H](CCCN=C(N)N)NC(=O)[C@H](Cc1c[nH]c2ccccc12)NC(=O)[C@@H](N)CCCN=C(N)N (H-Arg-Trp-Arg-NH2): > 134%
- N=C(N)NCCC[C@H](NC(=O)[C@H](Cc1ccc(-c2ccccc2)cc1)NC(=O)[C@@H](N)CCCNC(=N)N)C(=O)NCc1ccccc1 (H-Arg-[Bip]-Arg-NHBn): > 5%
- N=C(N)NCCC[C@H](N)C(=O)N[C@@H](Cc1c[nH]c2ccccc12)C(=O)N[C@@H](CCCN)C(=O)NCc1ccccc1 (H-Arg-Trp-[Orn]-NHBn): > 1%

Next up:
Entry N=C(N)NCCC[C@H](N)C(=O)N[C@@H](Cc1ccc(NC(=N)N)cc1)C(=O)N[C@@H](Cc1c[nH]c2ccccc12)C(=O)NCc1ccccc1 (H-Arg-[Phe(4-guanidino)]-Trp-NHBn) ; hemolysis at 0.5 h, 1000 µM = > 2%

----------
test: Stability of the compound in 0.1 M NH4HCO3 buffer at pH 8.2 assessed as half life in presence of chymotrypsin; assay type: physicochemical; details: isolated protein
Non-standard residues stand in square brackets, D forms with d. Residues, ends and D or L forms follow the SMILES beside them. *: point of attachment. Phe(4-guanidino) = N=C(N)Nc1ccc(C[C@H](N)C(=O)O)cc1; Bip = N[C@@H](Cc1ccc(-c2ccccc2)cc1)C(=O)O; Dip = N[C@H](C(=O)O)C(c1ccccc1)c1ccccc1; Phe(4-NH2) = Nc1ccc(C[C@H](N)C(=O)O)cc1; Agp = N=C(N)NC[C@H](N)C(=O)O; NHBn = c1ccc(CN*)cc1
MEASUREMENT_KIND: t1/2

Record excerpt, results attached:
- N=C(N)NCCC[C@H](N)C(=O)N[C@@H](Cc1c[nH]c2ccccc12)C(=O)N[C@@H](CNC(=N)N)C(=O)NCc1ccccc1 (H-Arg-Trp-[Agp]-NHBn): Stable
- N=C(N)NCCC[C@H](N)C(=O)N[C@@H](Cc1ccc(NC(=N)N)cc1)C(=O)N[C@@H](Cc1c[nH]c2ccccc12)C(=O)NCc1ccccc1 (H-Arg-[Phe(4-guanidino)]-Trp-NHBn): Stable
- N=C(N)NCCC[C@H](NC(=O)[C@H](Cc1ccc(-c2ccccc2)cc1)NC(=O)[C@@H](N)CCCNC(=N)N)C(=O)NCc1ccccc1 (H-Arg-[Bip]-Arg-NHBn): Stable
- N=C(N)NCCC[C@H](NC(=O)[C@@H](NC(=O)[C@@H](N)CCCNC(=N)N)C(c1ccccc1)c1ccccc1)C(=O)NCc1ccccc1 (H-Arg-[Dip]-Arg-NHBn): Stable

With those in mind, consider the next molecule.
In plain terms, N=C(N)NCCC[C@H](N)C(=O)N[C@@H](Cc1c[nH]c2ccccc12)C(=O)N[C@@H](Cc1ccc(N)cc1)C(=O)NCc1ccccc1 (H-Arg-Trp-[Phe(4-NH2)]-NHBn) has a documented t1/2 of Stable
